These measurements were taken from the supplement of paper PMC9170038.

- System: MS2 coat protein
- protocolSummary: apparent KD of MS2 coat protein; designed switch direction (-1 OFF switch, 1 ON switch): 1; higher = weaker reporter binding
- particulars: input ligand: FMN 200 uM
valueKind: apparent KD of MS2 coat protein (nM)

>>> val("ACGCUAAAUGGAGGAUAUGGAGCCUUAUUGGCUCCAGAAGGUCAAAACAUGAGGAUCACCCAUGUGCGGUGGUCUAAUGACCAC [Eli NG1ss - 47] (Eterna round: R96, puzzle: Same State NG 1)")
68
>>> val("AGCCGAGACUGAGGAUAUUUAAAUCUACAUGAGGAUCACCCAUGUAACAACACGUGGUAGUGAUUGAAGAAGGCGGCUCGGCGC [Omei SS(NG)2 Cv2] (Eterna round: R96, puzzle: Same State NG 2)")
177
>>> val("GUGGAGGGUUGAGGAUAUUGAAUACAUAUGUUUAACAUGAGGAUCACCCAUGUGGGUUGCGGUAUCGAGAAGGUAAAUUACUGG [salish99_SSNG2_r04_036] (Eterna round: R96, puzzle: Same State NG 2)")
80.9
>>> val("UUAUUAUUUACAUGAGGAUCACCCAUGUUUUUAUGUCAGAGAUAGGAUAUAGAAGUCUCGUUUUACUAGAAGGAUCUUUUUAUU [JR_SSNG3_Sub083] (Eterna round: R96, puzzle: Same State NG 3)")
21.2
